Data provenance: the Kinase Knowledgebase extract (Sharma et al. 2016)

molecular target: CDK2 (UniProt P24941); assay: Enzyme Assay
pIC50: −log10 of the molar value.
Listed here: items and their measured pIC50.

[[record]]
mol_smiles = "Cn1c2ccccc2c2cc[n+]3c(c21)C(=O)c1ccccc1-3"
readout_value = "< 4.00"


Reported pIC50 of O=C1c2ccccc2-[n+]2ccc3c([nH]c4ccccc43)c21 : < 4.30

* * *

target: UniProt P24941; assay: Enzyme Assay
Assay readout: pKi
For clarity, pKi is expressed as the negative log10 of concentration in mol/L.

The examples below pair each entry with its known result.
[[record]]
mol_smiles = "Nc1cc(S)ncn1"
readout_value = 5.70

[[record]]
mol_smiles = "CN1CCN(c2ccc(Nc3nc(N)c(C(=O)c4c(F)cc(C(F)(F)F)cc4F)s3)cc2)CC1"
readout_value = 6.06


pKi in this record for CCNCc1cncc(-c2ccc3[nH]nc(-c4nc5c(C(=O)NC)cccc5[nH]4)c3c2)c1C : 9.60
